assay: Inhibition of recombinant perforin mediated lysis of human Jurkat cells pre-incubated for 30 mins with perforin followed by incubation with Jurkat cells at 37 degC for 4 hrs in presence of 0.1% BSA by [51Cr] release assay
pIC50: −log10 of the molar value.
metric.name: pIC50

Example results:
- compound: "CNC(=O)CCc1ccc(-c2c(C#N)c(N)n3c(nc4ccccc43)c2C#N)cc1"
  metric.name: "pIC50"
  value.measured: "< 4.70"
- compound: "CC(O)CNC(=O)COc1ccc(-c2c(C#N)c(N)n3c(nc4ccccc43)c2C#N)cc1 (stereo not drawn)"
  metric.name: "pIC50"
  value.measured: "< 4.70"

From here, focus on the item given below.
Would you kindly share the measured pIC50 for CN(C)C(=O)CCc1ccc(-c2c(C#N)c(N)n3c(nc4ccccc43)c2C#N)cc1 ?
< 4.70
